test system: MATSS: scented mayweed (Matricaria chamomilla), pineappleweed (Matricaria matricarioides); assay: Post-emergent Test III, herbicidal activity in wheat and barley; format: in vivo; settings: Matricaria chamomilla, post-emergence, 504 h; 70 g ai/ha; 21 days after application; read-out: Visual Gorowth Reduction (%) 21 days After Application MATSS
readout.label: pest or weed control at 70 g/ha

Use these answered entries as a reference point.
COC(=O)c1nc(-c2ccc(Br)c(F)c2F)nc(N)c1OC 30 to 44%
C#Cc1ccc(-c2nc(C(=O)O)c(Cl)c(N)c2F)c(F)c1 60 to 74%
Nc1cc(-c2ccc(I)c(F)c2F)nc(C(=O)O)c1Cl 85 to 94%

Give the reported pest or weed control at 70 g/ha for this compound. `COc1c(N)nc(-c2ccc(Br)c(F)c2F)nc1C(=O)O`
75 to 84%

Give the reported pest or weed control at 70 g/ha for this compound. `COC(=O)c1nc(-c2ccc(Br)cc2F)c(F)c(N)c1Cl`
60 to 74%

Give the reported pest or weed control at 70 g/ha for this compound. `Nc1c(F)c(-c2ccc(Br)cc2F)nc(C(=O)O)c1Cl`
95 to 100%

Give the reported pest or weed control at 70 g/ha for this compound. `Nc1c(F)c(-c2ccc(I)c(F)c2)nc(C(=O)O)c1Cl`
75 to 84%

Give the reported pest or weed control at 70 g/ha for this compound. `Nc1c(F)c(-c2cc(F)c(I)cc2F)nc(C(=O)O)c1Cl`
85 to 94%
